assay: Passive permeability across apical to basolateral side in human Caco2 cells; format: ADME, cell-based; details: Caco-2, read-out: permeability

# structure-as-smiles, Papp A→B
rows = [
    ("CCCc1nn(C)c2c(=O)[nH]c(-c3cc(S(=O)(=O)NCCCCCCO)ccc3OCC)nc12", "9.1 ×10⁻⁶ cm/s"),
]

----------
assay: Cmax in Balbc mouse at 1 mg/kg, ip; format: ADME, organism-based; parameters: dose 1 mg/kg, route intraperitoneal; conditions: in vivo

# structure-as-smiles, quantity-unit, Cmax
measured = [
    ("CCCc1nn(C)c2c(=O)[nH]c(-c3cc(S(=O)(=O)NCCCCCCO)ccc3OCC)nc12", "ng/mL", 105),
]

----------
Here we list compounds with their recorded IC50 when tested on UniProt:O76074.
property-label: IC50 (nM)

# structure-as-smiles, property-label, observed-measurement
rows = [
    ("CCCc1nn(C)c2c(=O)[nH]c(-c3cc(S(=O)(=O)NCCN4CCOCC4)ccc3OCC)nc12", "IC50", 1.6),
    ("CCCCCCCNS(=O)(=O)c1ccc(OCC)c(-c2nc3c(CCC)nn(C)c3c(=O)[nH]2)c1", "IC50", 3.9),
    ("CCCc1nn(C)c2c(=O)[nH]c(-c3cc(S(=O)(=O)NCCCN4CCOCC4)ccc3OCC)nc12", "IC50", 2.6),
    ("CCCc1nn(C)c2c(=O)[nH]c(-c3cc(S(=O)(=O)NCCCN(C)C)ccc3OCC)nc12", "IC50", 14),
]

----------
assay: AUC (0 to infinity) in Balbc mouse at 1 mg/kg, ip; assay type: ADME, organism-based; set-up: time infinity, dose 1 mg/kg, route intraperitoneal; conditions: plasma

# structure-as-smiles, AUC(0-inf)
rows = [
    ("CCCc1nn(C)c2c(=O)[nH]c(-c3cc(S(=O)(=O)NCCCCCCO)ccc3OCC)nc12", "71 ng·h/mL"),
]

----------
assay: Apparent oral clearance in Balbc mouse at 1 mg/kg, iv; type: ADME, organism-based; design: dose 1 mg/kg, route oral; settings: in vivo

# structure-as-smiles, CL/F (mL/min/kg)
data = [
    ("CCCc1nn(C)c2c(=O)[nH]c(-c3cc(S(=O)(=O)NCCCCCCO)ccc3OCC)nc12", 204),
]

----------
assay: Cmax in Swiss mouse at 10 mg/kg, po; type: ADME, organism-based; parameters: dose 10 mg/kg, route oral; details: in vivo

# structure-as-smiles, quantity-unit, Cmax
measured = [
    ("CCCc1nn(C)c2c(=O)[nH]c(-c3cc(S(=O)(=O)NCCCCCCO)ccc3OCC)nc12", "ng/mL", 380),
]

----------
Form field: pKa (one value per entry).
assay: Dissociation constant, pKa of the compound; type: physicochemical

# structure-as-smiles, pKa
records = [
    ("CCCc1nn(C)c2c(=O)[nH]c(-c3cc(S(=O)(=O)N4CCN(C)CC4)ccc3OCC)nc12", 4.86),
    ("CCCc1nn(C)c2c(=O)[nH]c(-c3cc(S(=O)(=O)NCCCCCCO)ccc3OCC)nc12", 5.22),
]

----------
experiment: Fraction unbound in whole blood (unknown origin); assay type: ADME, tissue-based

# structure-as-smiles, fraction unbound
data = [
    ("CCCc1nn(C)c2c(=O)[nH]c(-c3cc(S(=O)(=O)N4CCN(C)CC4)ccc3OCC)nc12", 0.066),
    ("CCCc1nn(C)c2c(=O)[nH]c(-c3cc(S(=O)(=O)NCCCCCCO)ccc3OCC)nc12", 0.023),
]

----------
test: Solubility in water; assay type: physicochemical

# structure-as-smiles, solubility, µM
measured = [
    ("CCCc1nn(C)c2c(=O)[nH]c(-c3cc(S(=O)(=O)NCCCCCCO)ccc3OCC)nc12", 20),
]

----------
target: CYP3A4 (Homo sapiens, UniProt P08684); experiment: Inhibition of CYP3A4 (unknown origin) at 10 uM; type: ADME
Sequence (P08684 whole entry): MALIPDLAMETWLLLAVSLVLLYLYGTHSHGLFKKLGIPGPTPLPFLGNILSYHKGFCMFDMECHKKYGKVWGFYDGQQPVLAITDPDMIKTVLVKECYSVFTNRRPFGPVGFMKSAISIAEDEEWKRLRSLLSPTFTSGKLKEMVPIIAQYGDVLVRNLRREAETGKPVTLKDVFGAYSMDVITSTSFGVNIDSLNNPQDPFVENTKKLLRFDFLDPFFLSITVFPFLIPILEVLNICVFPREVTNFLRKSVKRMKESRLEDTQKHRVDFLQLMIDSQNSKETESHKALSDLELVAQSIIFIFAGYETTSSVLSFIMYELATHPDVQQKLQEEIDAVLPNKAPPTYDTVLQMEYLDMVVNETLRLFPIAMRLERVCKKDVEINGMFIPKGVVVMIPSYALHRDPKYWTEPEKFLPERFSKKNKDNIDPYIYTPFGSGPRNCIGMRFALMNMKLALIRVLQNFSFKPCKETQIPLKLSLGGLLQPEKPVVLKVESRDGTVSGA

# structure-as-smiles, inhibition at 10 µM [%]
records = [
    ("CCCc1nn(C)c2c(=O)[nH]c(-c3cc(S(=O)(=O)NCCCCCCO)ccc3OCC)nc12", 50),
]

----------
assay: Solubility in PBS; format: physicochemical
property-label: solubility

# structure-as-smiles, observed-measurement
rows = [
    ("CCCc1nn(C)c2c(=O)[nH]c(-c3cc(S(=O)(=O)NCCCCCCO)ccc3OCC)nc12", "20 µM"),
]

----------
experiment: Cmax in Balbc mouse at 1 mg/kg, iv; format: ADME, organism-based; set-up: dose 1 mg/kg, route intravenous; conditions: in vivo

# structure-as-smiles, Cmax, ng/mL
measured = [
    ("CCCc1nn(C)c2c(=O)[nH]c(-c3cc(S(=O)(=O)NCCCCCCO)ccc3OCC)nc12", 221),
]

----------
target: cGMP-specific 3',5'-cyclic phosphodiesterase (Homo sapiens)
Rule: IC50 below 3 nM gives met. Equal to or above 3 nM gives not met.

# structure-as-smiles, experimental-system, assigned-class
data = [
    ("CCCCCCNS(=O)(=O)c1ccc(OCC)c(-c2nc3c(CCC)nn(C)c3c(=O)[nH]2)c1", "cGMP-specific 3',5'-cyclic phosphodiesterase (Homo sapiens)", "not met"),
    ("CCCc1nn(C)c2c(=O)[nH]c(-c3cc(S(=O)(=O)NCCN(CC)CC)ccc3OCC)nc12", "cGMP-specific 3',5'-cyclic phosphodiesterase (Homo sapiens)", "not met"),
    ("CCCc1nn(C)c2c(=O)[nH]c(-c3cc(S(=O)(=O)NCCN4CCCCC4)ccc3OCC)nc12", "cGMP-specific 3',5'-cyclic phosphodiesterase (Homo sapiens)", "not met"),
    ("CCCc1nn(C)c2c(=O)[nH]c(-c3cc(S(=O)(=O)NCCCO)ccc3OCC)nc12", "cGMP-specific 3',5'-cyclic phosphodiesterase (Homo sapiens)", "not met"),
    ("CCCc1nn(C)c2c(=O)[nH]c(-c3cc(S(=O)(=O)NCCCCO)ccc3OCC)nc12", "cGMP-specific 3',5'-cyclic phosphodiesterase (Homo sapiens)", "met"),
    ("CCCc1nn(C)c2c(=O)[nH]c(-c3cc(S(=O)(=O)NCCCCCO)ccc3OCC)nc12", "cGMP-specific 3',5'-cyclic phosphodiesterase (Homo sapiens)", "met"),
    ("CCCc1nn(C)c2c(=O)[nH]c(-c3cc(S(=O)(=O)NCCc4c[nH]c5ccccc45)ccc3OCC)nc12", "cGMP-specific 3',5'-cyclic phosphodiesterase (Homo sapiens)", "not met"),
    ("CCCc1nn(C)c2c(=O)[nH]c(-c3cc(S(=O)(=O)NCc4ccc(OC)c(F)c4)ccc3OCC)nc12", "cGMP-specific 3',5'-cyclic phosphodiesterase (Homo sapiens)", "not met"),
    ("CCCc1nn(C)c2c(=O)[nH]c(-c3cc(S(=O)(=O)NCCCCCCO)ccc3OCC)nc12", "cGMP-specific 3',5'-cyclic phosphodiesterase (Homo sapiens)", "met"),
]

----------
biological target: High affinity 3',5'-cyclic-AMP phosphodiesterase 7A (Homo sapiens, UniProt Q13946); assay: Inhibition of GST-tagged recombinant human PDE7A1
Sequence (Q13946 whole entry): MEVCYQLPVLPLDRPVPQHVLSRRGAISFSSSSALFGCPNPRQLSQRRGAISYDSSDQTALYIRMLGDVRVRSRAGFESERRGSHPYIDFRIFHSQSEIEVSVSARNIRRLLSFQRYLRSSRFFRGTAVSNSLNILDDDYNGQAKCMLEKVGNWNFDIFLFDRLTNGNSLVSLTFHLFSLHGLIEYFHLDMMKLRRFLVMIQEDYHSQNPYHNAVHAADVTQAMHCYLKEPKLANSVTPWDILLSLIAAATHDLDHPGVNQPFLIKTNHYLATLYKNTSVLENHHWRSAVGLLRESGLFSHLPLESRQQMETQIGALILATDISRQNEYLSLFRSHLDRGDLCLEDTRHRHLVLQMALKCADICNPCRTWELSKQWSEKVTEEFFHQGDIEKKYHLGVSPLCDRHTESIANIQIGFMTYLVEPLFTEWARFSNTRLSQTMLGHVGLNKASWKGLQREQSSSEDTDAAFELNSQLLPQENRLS

# structure-as-smiles, IC50 [µM]
rows = [
    ("CCCc1nn(C)c2c(=O)[nH]c(-c3cc(S(=O)(=O)N4CCN(C)CC4)ccc3OCC)nc12", 22),
]

----------
assay: AUC (0 to time) in Balbc mouse at 1 mg/kg, iv; format: ADME, organism-based; parameters: dose 1 mg/kg, route intravenous; conditions: plasma

# structure-as-smiles, AUC
records = [
    ("CCCc1nn(C)c2c(=O)[nH]c(-c3cc(S(=O)(=O)NCCCCCCO)ccc3OCC)nc12", "80 ng·h/mL"),
]

----------
Each item that follows carries a reported metabolised.
assay: Metabolic stability in mouse liver microsomes assessed as metabolized drug; assay type: ADME; settings: read-out: Drug metabolism
property-label: metabolised (%)

# structure-as-smiles, quantity-unit, value-qualifier, observed-measurement
data = [
    ("CCCc1nn(C)c2c(=O)[nH]c(-c3cc(S(=O)(=O)N4CCN(C)CC4)ccc3OCC)nc12", "%", "=", 90),
    ("CCCc1nn(C)c2c(=O)[nH]c(-c3cc(S(=O)(=O)NCCCCCCO)ccc3OCC)nc12", "%", ">", 95),
]

----------
molecular target: Dual 3',5'-cyclic-AMP and -GMP phosphodiesterase 11A (Homo sapiens, UniProt Q9HCR9); assay: Inhibition of GST-tagged recombinant human PDE11A4
Sequence (Q9HCR9 whole entry): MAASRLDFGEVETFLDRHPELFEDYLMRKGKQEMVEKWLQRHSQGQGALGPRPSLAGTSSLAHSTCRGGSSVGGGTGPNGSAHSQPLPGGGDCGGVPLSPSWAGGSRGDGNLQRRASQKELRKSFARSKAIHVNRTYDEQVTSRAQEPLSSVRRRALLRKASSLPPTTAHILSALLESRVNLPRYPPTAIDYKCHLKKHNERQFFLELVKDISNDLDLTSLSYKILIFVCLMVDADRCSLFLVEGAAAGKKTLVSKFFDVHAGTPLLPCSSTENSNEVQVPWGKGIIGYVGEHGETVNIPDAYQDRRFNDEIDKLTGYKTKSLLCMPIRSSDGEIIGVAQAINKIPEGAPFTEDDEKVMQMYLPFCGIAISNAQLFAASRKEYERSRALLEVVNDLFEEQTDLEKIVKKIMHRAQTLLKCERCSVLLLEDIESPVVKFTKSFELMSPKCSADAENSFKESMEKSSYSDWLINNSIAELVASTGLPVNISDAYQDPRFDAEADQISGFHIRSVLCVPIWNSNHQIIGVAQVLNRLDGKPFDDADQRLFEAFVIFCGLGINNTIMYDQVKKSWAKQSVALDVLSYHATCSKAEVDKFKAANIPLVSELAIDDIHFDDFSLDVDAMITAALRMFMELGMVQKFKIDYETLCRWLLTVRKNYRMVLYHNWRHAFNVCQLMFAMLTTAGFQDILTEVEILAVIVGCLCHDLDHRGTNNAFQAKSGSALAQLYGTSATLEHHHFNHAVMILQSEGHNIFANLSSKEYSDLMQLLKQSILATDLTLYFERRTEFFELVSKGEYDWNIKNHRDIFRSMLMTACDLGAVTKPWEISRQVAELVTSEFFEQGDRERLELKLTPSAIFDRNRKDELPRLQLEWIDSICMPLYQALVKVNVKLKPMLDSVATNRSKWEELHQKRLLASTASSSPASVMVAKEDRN
pIC50: −log10 of the molar value.
property-label: pIC50

# structure-as-smiles, property-label, observed-measurement
data = [
    ("CCCc1nn(C)c2c(=O)[nH]c(-c3cc(S(=O)(=O)NCCCCCCO)ccc3OCC)nc12", "pIC50", 5.85),
]

----------
molecular target: cAMP and cAMP-inhibited cGMP 3',5'-cyclic phosphodiesterase 10A (Homo sapiens, UniProt Q9Y233)
Sequence (Q9Y233 whole entry): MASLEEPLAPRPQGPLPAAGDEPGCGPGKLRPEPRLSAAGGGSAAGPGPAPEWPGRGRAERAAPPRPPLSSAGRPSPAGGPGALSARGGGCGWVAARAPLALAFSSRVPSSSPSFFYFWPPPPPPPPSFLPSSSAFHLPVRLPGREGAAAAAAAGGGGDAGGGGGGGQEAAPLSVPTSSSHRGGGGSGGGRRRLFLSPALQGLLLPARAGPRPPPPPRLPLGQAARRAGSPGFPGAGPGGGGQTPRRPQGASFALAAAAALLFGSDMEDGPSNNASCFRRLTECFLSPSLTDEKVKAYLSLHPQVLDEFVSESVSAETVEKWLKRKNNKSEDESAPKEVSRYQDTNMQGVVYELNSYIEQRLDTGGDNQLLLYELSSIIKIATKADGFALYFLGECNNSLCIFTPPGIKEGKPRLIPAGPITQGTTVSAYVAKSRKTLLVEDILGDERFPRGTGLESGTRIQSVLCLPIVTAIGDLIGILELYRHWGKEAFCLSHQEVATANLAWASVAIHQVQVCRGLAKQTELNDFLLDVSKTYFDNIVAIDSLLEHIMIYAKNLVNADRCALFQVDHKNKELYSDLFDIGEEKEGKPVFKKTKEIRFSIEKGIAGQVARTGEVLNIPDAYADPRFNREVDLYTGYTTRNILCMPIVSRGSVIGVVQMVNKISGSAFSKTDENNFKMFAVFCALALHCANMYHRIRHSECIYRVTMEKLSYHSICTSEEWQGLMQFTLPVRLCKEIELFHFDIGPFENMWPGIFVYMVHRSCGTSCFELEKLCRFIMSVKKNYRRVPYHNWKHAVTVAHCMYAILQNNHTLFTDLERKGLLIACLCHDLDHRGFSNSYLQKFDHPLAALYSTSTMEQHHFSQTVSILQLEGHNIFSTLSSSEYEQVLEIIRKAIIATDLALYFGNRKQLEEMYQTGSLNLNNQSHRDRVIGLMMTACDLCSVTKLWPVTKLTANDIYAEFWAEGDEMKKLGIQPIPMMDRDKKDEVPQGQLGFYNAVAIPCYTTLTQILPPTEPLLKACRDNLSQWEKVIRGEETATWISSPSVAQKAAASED
pIC50: −log10 of the molar value.

# structure-as-smiles, pIC50
data = [
    ("CCCc1nn(C)c2c(=O)[nH]c(-c3cc(S(=O)(=O)NCCCCCCO)ccc3OCC)nc12", 5.70),
]
